# protocolNotes: Cytotoxicity against human HepG2 cells after 72 hrs by MTT assay
# Assay type: cell-based
Rule: measured CC50 at 72 h below 300 µg/mL gets MET; anything equal to or greater than 300 µg/mL gets NOT MET.

Example entries begin here.
compoundStructure	classAssignment
Oc1ccccc1/C=N/c1sc2c(c1-c1nc3ccccc3s1)CCCC2	MET
Nc1sc2c(c1-c1nc3cc(Cl)ccc3s1)CCCC2	MET
Clc1ccc(/C=N/c2sc3c(c2-c2nc4ccccc4s2)CCC3)cc1	NOT MET

Strictly below 300 µg/mL in CC50 at 72 h? Nc1sc2c(c1-c1nc3ccccc3s1)CCCC2
MET

// repeat for O=[N+]([O-])c1ccccc1/C=N/c1sc2c(c1-c1nc3ccccc3s1)CCCC2 and report
NOT MET

// repeat for O=[N+]([O-])c1ccc(/C=N/c2sc3c(c2-c2nc4ccccc4s2)CCCC3)cc1 and report
NOT MET

// repeat for Clc1ccc(/C=N/c2sc3c(c2-c2nc4ccccc4s2)CCC3)c(Cl)c1 and report
NOT MET

// repeat for Oc1ccccc1/C=N/c1sc2c(c1-c1nc3cc(Cl)ccc3s1)CCC2 and report
MET

// repeat for C(=C\c1ccccc1)/C=N/c1sc2c(c1-c1nc3ccccc3s1)CCC2 and report
MET

----------
Quick reference: CC50 at 72 h of the listed items.
# protocolNotes: Cytotoxicity against human HeLa cells after 72 hrs by MTT assay
# Format: cell-based
Answer in µg/mL, number only, no unit symbol.

What CC50 at 72 h value was documented for this compound, Oc1ccccc1/C=N/c1sc2c(c1-c1nc3ccccc3s1)CCC2 ?
168

// repeat for Clc1ccc(/C=N/c2sc3c(c2-c2nc4ccccc4s2)CCCC3)cc1 and report
431

// repeat for C(=N\c1sc2c(c1-c1nc3ccccc3s1)CCC2)/c1ccc2c(c1)OCO2 and report
449

// repeat for Fc1ccccc1/C=N/c1sc2c(c1-c1nc3ccccc3s1)CCC2 and report
355

// repeat for Oc1ccccc1/C=N/c1sc2c(c1-c1nc3ccccc3s1)CCCC2 and report
122

// repeat for Clc1ccc2sc(-c3c(/N=C/C=C/c4ccccc4)sc4c3CCCC4)nc2c1 and report
150

// repeat for Clc1ccccc1/C=N/c1sc2c(c1-c1nc3ccccc3s1)CCCC2 and report
407

----------
# protocolNotes: Selectivity index, ratio of CC50 for human rhabdomyosarcoma cells to EC50 for Enterovirus 71 infected in human rhabdomyosarcoma cells
# Format: toxicity
# runParameters: read-out: Ratio CC50/EC50
Tick 1 if selectivity ratio is 20 or greater. Tick 0 if selectivity ratio is less than 20.

Is the recorded value of selectivity ratio equal to or greater than 20 for this molecule? Oc1ccccc1/C=N/c1sc2c(c1-c1nc3cc(Cl)ccc3s1)CCC2
0

----------
# Tested on: Coxsackievirus B5
# protocolNotes: Antiviral activity against Coxsackievirus B5 infected in human HepG2 cells assessed as inhibition of virus-induced cytopathogenicity after 48 hrs by crystal violet staining method
# Type: functional, organism-based
# runParameters: Enterovirus B, HepG2, 48 h
Quick reference: EC50 of the listed items.
Enter the number, and then the unit.

compound	measurementLabel	result
NC(=O)c1ncn([C@@H]2O[C@H](CO)[C@@H](O)[C@H]2O)n1 [RIBAVIRIN]	EC50	22.3 µg/mL
Nc1sc2c(c1-c1nc3ccccc3s1)CCCC2	EC50	14.5 µg/mL
Oc1ccccc1/C=N/c1sc2c(c1-c1nc3ccccc3s1)CCCC2	EC50	5.4 µg/mL
O=[N+]([O-])c1ccccc1/C=N/c1sc2c(c1-c1nc3ccccc3s1)CCCC2	EC50	11.2 µg/mL
Fc1ccc(/C=N/c2sc3c(c2-c2nc4ccccc4s2)CCCC3)cc1	EC50	9.7 µg/mL

What EC50 value was documented for this compound, Oc1ccccc1/C=N/c1sc2c(c1-c1nc3ccccc3s1)CCC2 ?
11.1 µg/mL

This collection of values is drawn from ChEMBL document CHEMBL2417493.
